measure-name: melting point

Answered examples (2):
* CCOc1ccc2c(C#N)c(-c3ccc(NCCc4ccccn4)cc3)n(C3CCC3)c2c1 [compound 1433] | 153 to 156 °C
* N#Cc1c(-c2ccc(NC(=O)NC3CCC3)cc2)n(C2CCC2)c2cc(N3CCOCC3)ccc12 [Compound 2863] | 172 °C (dec.)

# melting point lookup, item CC(C)OC(=O)Nc1ccc(-c2c(C#N)c3cc(OCCCn4cncn4)ccc3n2C2CCC2)cc1 [Compound 2605]
204 to 205 °C

What about CC(C)CS(=O)(=O)Nc1ccc(-c2c(C#N)c3ccc(C(=O)N4CCOCC4)cc3n2C2CCC2)cc1 [Compound 2901] ?
210 to 212 °C

What about CCOc1ccc2c(F)c(-c3ccc(NC(=O)OC(C)C)cc3)n(CC3CC3)c2c1 [compound 2640] ?
178 to 184 °C

What about CC(C)S(=O)(=O)Nc1ccc(-c2c(C#N)c3ccc(N4CCCCC4)cc3n2C2CCC2)cc1 [Compound 2968] ?
233 to 235 °C

What about CCOc1ccc2c(C#N)c(-c3ccc(Nc4ncccn4)cc3)n(CC3CC3)c2c1 [Compound 3252] ?
223 to 224 °C

What about CC(OC(=O)Nc1ccc(-c2c(C#N)c3ccc(OC4COCOC4)cc3n2C2CCC2)cc1)C(C)(C)C (centres unmarked) [Compound 2861] ?
221 to 232 °C (dec.)

---

molecules and their reported melting point

Answered examples (3):
• COCCOc1ccc2c(C#N)c(-c3ccc(NC(=O)OC4CCC4)cc3)n(C(C)C)c2c1 [Compound 2609] = 165 to 166 °C
• CCn1c(-c2ccc3c(c2)CCC(=O)N3)c(C#N)c2ccc(OC(C)C)cc21 [Compound 3227] = 148 to 150 °C
• N#Cc1c(-c2ccc(NC(=O)OCC3CC3)cc2)n(C2CCC2)c2cc(OC3COCOC3)ccc12 [Compound 2860] = 197 to 198 °C

# melting point lookup, item N#C/N=C(/Nc1ccc(-c2c(C#N)c3ccc(OC4CCOCC4)cc3n2C2CCC2)cc1)NC1CCCCC1 [Compound 3176]
209 to 211 °C

What about CC(C)OC(=O)Nc1ccc(-c2c(C#N)c3ccc(N4CCCCC4)cc3n2CC2CC2)cc1 [Compound 2892] ?
145 to 148 °C

What about C[C@@H](OC(=O)Nc1ccc(-c2c(C#N)c3ccc(OC(=O)NC4CCCCC4)cc3n2C2CCC2)cc1)C1CC1 [Compound 3172] ?
213 to 216 °C

What about COCCOc1ccc2c(C#N)c(-c3ccc(C(=O)N4CCCCC4)cc3)n(C3CCC3)c2c1 [Compound 2757] ?
155 to 158 °C

What about COCCOc1ccc2c(C#N)c(-c3ccc(C(=O)N[C@H](C)c4ccc(OC)cc4)cc3)n(C3CCC3)c2c1 [Compound 3133] ?
156 to 157 °C

What about CCCn1c(-c2ccc(NC(=O)NCc3ccco3)cc2)c(C#N)c2ccc(OC)cc21 [Compound 1388] ?
161 to 164 °C

What about N#Cc1c(-c2ccc(OC[C@H]3CCCO3)cc2)n(CC2CC2)c2cc(OC3CCOCC3)ccc12 [Compound 2789] ?
133 to 134 °C

What about CCn1c(-c2ccc(NS(=O)(=O)CC)cc2)c(C#N)c2ccc(C(=O)N3CCN(c4ccccc4)CC3)cc21 [Compound 1362] ?
236 to 238 °C

What about C[C@H](NS(=O)(=O)Nc1ccc(-c2c(C#N)c3ccc(Oc4ncccc4F)cc3n2C2CCC2)cc1)C1CC1 [Compound 3018] ?
155 to 157 °C

What about CC(C)NS(=O)(=O)Nc1ccc(-c2c(C#N)c3ccc(Oc4nccnc4Cl)cc3n2C2CC2)cc1 [Compound 2947] ?
130 °C (dec.)

What about CCCS(=O)(=O)Nc1ccc(-c2c(C#N)c3cc(OC4COCOC4)ccc3n2C2CCC2)cc1 [Compound 2776] ?
183 to 184 °C

What about N#Cc1c(-c2ccc(NC(=S)NC3CCCC3)cc2)n(C2CCC2)c2cc(OC3CCOCC3)ccc12 [Compound 3157] ?
137 to 138 °C

---

compounds and their reported melting point

* CN(C)/C=N/c1ccc(-c2c(C#N)c3ccc(Oc4ncccn4)cc3n2C2CCC2)cc1Cl | 215 to 216 °C

# melting point lookup, item CCC1(S(=O)(=O)Nc2ccc(-c3c(C#N)c4ccc(C(=O)N5CCOCC5)cc4n3C3CCC3)cc2)CC1
212 to 214 °C

What about CCn1c(-c2ccc(NS(=O)(=O)CC)cc2)c(C#N)c2ccc(C(=O)N3CCOCC3)cc21 ?
238 to 241 °C

What about COCCOc1ccc2c(C#N)c(-c3ccc(NC(=O)OC(C)C(C)(C)C)cc3)n(C(C)C)c2c1 (stereo not shown) ?
204 to 205 °C

---

compounds and their reported melting point

Answered examples (3):
- CN(C)c1ccc(NC(=O)Oc2ccc(-c3c(C#N)c4ccc(OC5CCOCC5)cc4n3C3CCC3)cc2)cc1 [Compound 3111]: 165 to 166 °C
- CCCn1c(-c2ccc(NC(=O)N(CC)CC)cc2)c(C#N)c2ccc(OC)cc21 [Compound 1386]: 213 to 214 °C
- CCCS(=O)(=O)Nc1ccc(-c2c(C#N)c3ccc(Oc4ncccc4Br)cc3n2C2CC2)cc1 [Compound 3003]: 223 to 225 °C

Turning to the following compound.
# melting point lookup, item C[C@@H](OC(=O)Nc1ccc(-c2cc3ccc(Oc4nccnc4C#N)cc3n2CC2CC2)cc1)C(F)(F)F [Compound 3284]
99 to 101 °C

---

compounds and their reported melting point

# melting point lookup, item CC(C)OC(=O)Nc1ccc(-c2c(C#N)c3ccc(OC4CCOC4)cc3n2C2CC2)cc1 (stereo not shown)
180 to 181 °C

What about CC(C)S(=O)(=O)Nc1ccc(-c2c(C#N)c3ccc(OC4COCOC4)cc3n2C2CCC2)cc1 ?
196 to 198 °C

What about CCOc1ccc(-c2c(C#N)c3ccc(N4CCN(C)CC4)cc3n2CC)cc1 ?
186 to 187 °C

What about C[C@@H](OC(=O)Nc1ccc(-c2c(C#N)c3ccc(N4CCOCC4)cc3n2CC2CC2)cc1)C1CC1 ?
167 to 173 °C

---

compounds and their reported melting point

Answered examples (6):
- COCCOc1ccc2c(C#N)c(-c3ccc(C(=O)N4CCC4)cc3)n(C3CCC3)c2c1 [Compound 2755]: 166 to 168 °C
- CCCCNC(=O)Oc1ccc(-c2c(C#N)c3ccc(OC4CCOCC4)cc3n2C2CCC2)cc1 [Compound 2810]: 137 to 138 °C
- CCOCCOc1ccc2c(C#N)c(-c3ccc(NC(=O)OC(C)C)cc3)n(C3CCC3)c2c1 [Compound 2611]: 115 to 116 °C
- C[C@@H](OC(=O)Nc1ccc(-c2c(C#N)c3ccc(OC4CCOCC4)cc3n2C2CC2)cc1)C(F)(F)F [Compound 2910]: 162 to 164 °C
- CCCS(=O)(=O)Nc1cc(C)c(-c2c(C#N)c3ccc(Oc4ncccc4C#N)cc3n2C2CCC2)cc1C [Compound 3335]: 227 to 230 °C
- C[C@@H](OC(=O)Nc1ccc(-c2c(C#N)c3ccc(C(=O)N4CCN(C)CC4)cc3n2C2CCC2)cc1)C1CC1 [Compound 3106]: 104 to 106 °C

# melting point lookup, item N#Cc1c(-c2ccc(OC(=O)NC3CCCC3)cc2)n(CC2CC2)c2cc(OC3CCOCC3)ccc12 [Compound 2784]
169 to 171 °C

---

compounds and their reported melting point

Answered examples (2):
* CCOc1ccc2c([N+](=O)[O-])c(-c3ccc(NC(=O)OC(C)C)cc3)n(CC3CC3)c2c1[N+](=O)[O-] [Compound 3093] | 112 to 119 °C
* C[C@@H](OC(=O)Nc1ccc(-c2c(C#N)c3ccc(OCCCS(C)(=O)=O)cc3n2C2CCC2)cc1)C1CC1 [Compound 2694] | 155 to 160 °C

# melting point lookup, item N#Cc1c(-c2ccc(NC(N)=S)cc2)n(C2CCC2)c2cc(OC3COCOC3)ccc12 [Compound 2846]
202 to 204 °C

What about COCCOc1ccc2c(C#N)c(-c3ccc(C(=O)N4CCCC4)cc3)n(C3CCC3)c2c1 [Compound 2756] ?
162 to 164 °C

What about CCOc1ccc2c(C#N)c(-c3ccc(S(=O)(=O)N4CCC[C@H]4CO)cc3)n(C3CCC3)c2c1 [Compound 2689] ?
180 to 183 °C

What about CCc1cnc(Oc2ccc3c(C#N)c(-c4ccc(NC(=O)O[C@H](C)C5CC5)cc4C)n(C4CCC4)c3c2)nc1 [Compound 3058] ?
181 to 185 °C

What about Cc1nccc(Oc2ccc3c(C#N)c(-c4ccc(NC(=O)O[C@H](C)C5CC5)cc4)n(C4CC4)c3c2)n1 [Compound 2715] ?
123 to 125 °C

What about CC(C)Nc1ccc(-c2c(C#N)c3ccc(Oc4ncccc4F)cc3n2C2CCC2)cc1 [Compound 3004] ?
188 to 190 °C

What about CCc1cnc(Oc2ccc3c(C#N)c(-c4ccc(NC(=O)O[C@H](C)C5CC5)cc4Cl)n(C4CCC4)c3c2)nc1 [Compound 3060] ?
205 to 212 °C

What about N#Cc1nccnc1Oc1ccc2c(C#N)c(-c3ccc(NS(=O)(=O)C4CCC4)cc3)n(CC3CC3)c2c1 [Compound 3295] ?
236 to 238 °C
